Entry source: the supplement of paper PMC9170038

Test system: K4 kissing-loop RNA reporter;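 further: bound reporter read as fluorescence of individual clusters on recovered sequencing chips by microscopy, with normalized cluster intensities fitted with a binding model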
Experiment: apparent KD of K4 kissing-loop reporter; higher = weaker reporter binding
Conditions: Eterna round: R107; input ligand: tryptophan 2.4 mM
Outcome measure: apparent KD of K4 kissing-loop reporter

Task: So what does the record say about apparent KD of K4 kissing-loop reporter for GCGAAGAAGGUUGAUACCAGUCUUGCGUGUCAAGCGCCAGUGAUGUUGGGCCUGUAGAUCGACCCUUGGCAGCAACCUCGAAAUG [theeternabot_sameState_KL_Theo_B_28] ?
Output: 655 nM

Task: Please do the same for AAAGAAGUAUACUUCAAGAGGUAUGCUGAUACCAGAGUCAAUUGACUCCCUUGGCAGCGGAUCGAGUGAUGUUCGUAACCUCAAA [AK3 SS Theophylline A] as well.
Output: 117 nM

Task: Please do the same for GCGCGCGGCGGAGGAUAUAGCAGGUGAUCCGAGAAAGUGAGUGAUGUUUACGGAGAUGAUGAUAUGUUAGAAGGCCGCCGCGCGC [abcdefghijklmnopqrstuv] as well.
Output: 558 nM

Task: Please do the same for GGGUGGCAGGCGGCCGCCACUCUGAGCACCCACUGAGUGAUGUUCGUGGCGUAAGACUGUUCGUAGAGGACCGGGUUUGUUGUUC [Same State Tryptophan B GF 23] as well.
Output: 205 nM

Task: Please do the same for ACCAUCAAAGAUGGCCAGGACUCAACUGAUACCAGAGUGGAGACACUCCCUUGGCAGCAGGUGAGUGAUGUUCACGAGUCCUGGA [Omel KL Theo A SS B v9] as well.
Output: 740 nM

Task: Please do the same for AUUAUAAAGUCGGCCGCCACUGAGAGUAGUGAUGUUACUCUAUUCCUUUACAUAUUAUAGUUUAUCAGGACCGGGACAUCAGAUU [JR_ExcTryptoB_Sub018] as well.
Output: 199 nM

Task: Please do the same for AUGUAUGAAUUAGGAUAUCGUGAUCCAUGCAUAUAUAUGAUAAAUGGAUAUGUCGUAGUGAUGUUACGAGAAGGAGUGUGGAGUA [KL-XFMN-B1] as well.
Output: 45 nM

###

Test system: MS2 coat protein
Assay: apparent KD of MS2 coat protein; designed switch direction (-1 OFF switch, 1 ON switch): -1; higher = weaker reporter binding
Conditions: Eterna round: R95; input ligand: none
Give measured apparent KD of MS2 coat protein for each item. Keep answers brief.
Field format: number, assumed nM, no unit text.

Task: So what does the record say about apparent KD of MS2 coat protein for AGGAAACAUGAGGAUCACCCAUGUGAGGAUAUGAAAAAGAAAAGAAAAGAAAGAAGAAUCAGAAGGCACAAAGG [Mat - Mod of Hog D1] (puzzle: Exclusion 1) ?
Output: 45.9

Task: Please do the same for UUUAAUUUUUUUUUUUUACAAGCUUUUUGCUCGUCUUAUACAUGAGGAUCACCCAUGUGAGUGGGAGAUAAAUUAUC [JMF 22] (puzzle: Sensor v3, turn-off variant 2) as well.
Output: 170

Task: Please do the same for UCAUAACAUGAGGAUCACCCAUGUGAGGAUAUGAUACUAUGUACUUCGGUACAUAGUAUCAGAAGGCACAUGCU [Brourd's Ex1-3: 11 (nt 72 G)] (puzzle: Exclusion 1) as well.
Output: 127

Task: Please do the same for CCGCAUAAGCAGGAUAUCGUAUCGGAGACGAUACGAGAAGGGUUAACAUGAGGAUCACCCAUGUUCCUUAACGG [Mat - Exclusion 6 - Eli Mod - D99] (puzzle: Exclusion 6) as well.
Output: 18.1

Task: Please do the same for AGUACUAACACGAAAGUGUUAGUACAAUAAGCUUGUGGUACAUGAGGAUCACCCAUGUCCUCAUAAGCUCGUCUUAU [JL-sv3-2.13 mat747 mod] (puzzle: Sensor v3, turn-off variant 2) as well.
Output: 20.7
